target-under-test: MAGIX, Q9H6Y5
Sequence (Q9H6Y5 118-211): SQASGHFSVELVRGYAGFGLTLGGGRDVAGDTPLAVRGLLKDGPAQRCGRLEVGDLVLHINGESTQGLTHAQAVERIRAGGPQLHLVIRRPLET
method-description: holdup assay
assay-conditions: plain residues with an end cap or a label only (N-terminal biotin on a linker: ttds)
measurement-type: pKd

binder="SSLQSLETSV [ATP2B4, P23634]" measurement_type=pKd measured_value="below the threshold"
binder="SKPTRRETEV [HPV35-E6, P27228]" measurement_type=pKd measured_value=3.56
binder="RLPKIKETTV [FRMPD4, Q14CM0]" measurement_type=pKd measured_value="below the threshold"
binder="RPLPRKVSQL [DOCK4, Q8N1I0]" measurement_type=pKd measured_value="below the threshold"
binder="QRQARSETLV [HPV59-E6, Q81964]" measurement_type=pKd measured_value="below the threshold"
binder="RHTTSTETAV [HPV30-E6, P36809]" measurement_type=pKd measured_value=5.35
binder="RLQRRRETQV [HPV18-E6, P06463]" measurement_type=pKd measured_value="below the threshold"
binder="SGSRPSATVV [HPV73-E6, Q82005]" measurement_type=pKd measured_value="below the threshold"

This collection of values is drawn from paper PMC9482650.
